// provenance: patent US10167272B2

- TARGET OR SYSTEM: human muscarinic M4 receptor (Homo sapiens)
- Construct: expressed in transfected cells
- Sequence (P08173 1-479): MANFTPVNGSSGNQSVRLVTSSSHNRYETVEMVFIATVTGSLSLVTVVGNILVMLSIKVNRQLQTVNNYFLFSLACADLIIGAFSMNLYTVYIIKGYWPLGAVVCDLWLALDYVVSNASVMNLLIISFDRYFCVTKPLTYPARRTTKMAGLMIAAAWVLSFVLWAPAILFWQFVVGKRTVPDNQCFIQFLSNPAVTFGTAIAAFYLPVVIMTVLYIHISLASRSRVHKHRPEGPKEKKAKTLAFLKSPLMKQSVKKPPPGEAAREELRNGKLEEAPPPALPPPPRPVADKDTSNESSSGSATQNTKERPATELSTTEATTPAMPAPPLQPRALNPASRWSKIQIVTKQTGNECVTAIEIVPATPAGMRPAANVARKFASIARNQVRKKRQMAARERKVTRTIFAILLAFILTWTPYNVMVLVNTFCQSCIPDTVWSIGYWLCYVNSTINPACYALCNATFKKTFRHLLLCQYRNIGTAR
- TEST NAME: Alphascreen Surefire phospho-ERK1/2 functional assay, M4
- Type: cell-based
- CONDITIONS USED: CHO cells stably expressing human M4; phospho-ERK1/2; read-out: pEC50 M4 (converted)
EXPERIMENTAL ENDPOINT: EC50 (nM)

- CCOC(=O)N1CCC2(CC(N3CCC(N(CC4(OC)CCC4)C(C)=O)CC3)C2)C1 (single isomer, unassigned) [2-30 Isomer 2]: 79.4

(A) CCOC(=O)N1CCC2(CC(N3CCC(N(C(C)=O)C4CCC4)CC3)C2)C1 (single isomer, unassigned) [2-6 Isomer 2]
(B) CCOC(=O)N1CCC2(CC(N3CCC(N(CC(C)C)C(C)=O)CC3)C2)C1 (single isomer, unassigned) [2-19 Isomer 1]
(C) CCOC(=O)N1CCC2(CC(N3CCC(C(C)N(C(C)=O)C4CC4)CC3)C2)C1 (single isomer, unassigned) [2-13 Isomer 2]
Which order do these items take when sorted by rising EC50? List them. # answer = labels listed in requested order
A, C, B

(a) CCOC(=O)N1CCC2(CC(N3CCC(N(CC(F)(F)F)C(C)=O)CC3)C2)C1 (single isomer, unassigned) [2-25 Isomer 2]
(b) CCOC(=O)N1CCC2(CC(N3CCC(N(C(=O)OC)C(C)C)CC3)C2)C1 (single isomer, unassigned) [2-41 Isomer 2]
# query: argmin of EC50 over a and b Answer = label.
b

(A) CCOC(=O)N1CCC2(CC(N3CCC(C(C)N(C(=O)CC)C4CC4)CC3)C2)C1 (single isomer, unassigned) [2-14 Isomer 2]
(B) CCOC(=O)N1CCC2(CC(N3CCC(SCc4ccccc4)CC3)C2)C1 (single isomer, unassigned) [2-67 Isomer 2]
In the pair A and B , the larger recorded EC50 belongs to which? Answer = label.
A
(A: 100 nM, B: 31.6 nM)

(a) CCOC(=O)N1CCC2(CC(N3CCC(C(C)n4cccn4)CC3)C2)C1 (single isomer, unassigned) [2-65 Isomer 2a]
(b) CCOC(=O)N1CCC2(CC(N3CCC(N(CC)C(=O)OCC)CC3)C2)C1 (single isomer, unassigned) [2-40 Isomer 2]
In the pair a and b , the larger recorded EC50 belongs to which? Answer = label.
a
